test system: Enterobacter cloacae 245; assay: IO staining of colonies of beta-D-galactosidase positive/negative bacteria (Table IVb); format: cell-based; conditions: Enterobacter cloacae strain 245, b-gal +; 24 h on Nutrient Agar, 150 mg/l indicator, 100 mg/l IPTG; also: key: −: absent; +/−: weak; +: strong; ++: very strong
reported metric: C: Color of colonies

Look over these answered cases.
O=C(c1ccccc1)c1ccccc1-n1cc(O[C@@H]2O[C@H](CO)[C@H](O)[C@H](O)[C@H]2O)c2c(Cl)c(Br)ccc21 [Indicator I22a] ... +
Cn1cccc1C(=O)c1ccccc1-n1cc(O[C@@H]2O[C@H](CO)[C@H](O)[C@H](O)[C@H]2O)c2ccc(Cl)cc21 [Indicator I31a] ... +
COc1ccc(C(=O)c2ccccc2-n2cc(O[C@@H]3O[C@H](CO)[C@H](O)[C@H](O)[C@H]3O)c3c(Cl)c(Br)ccc32)c(OC)c1 [Indicator I28a] ... +
COc1ccc(C(=O)c2ccccc2-n2cc(O[C@@H]3O[C@H](CO)[C@H](O)[C@H](O)[C@H]3O)c3ccccc32)c(OC)c1 [Indicator I25a] ... +

Record summary for CC(=O)c1ccccc1-n1cc(O[C@@H]2O[C@H](CO)[C@H](O)[C@H](O)[C@H]2O)c2ccc(Cl)cc21 [Indicator I16a] : reported C: Color of colonies = +

Entry COc1ccc(C(=O)c2ccccc2-n2cc(O[C@@H]3O[C@H](CO)[C@H](O)[C@H](O)[C@H]3O)c3ccc(Cl)cc32)c(OC)c1 [Indicator I27a] , C: Color of colonies reported as ++

C: Color of colonies recorded for this compound, O=C(c1ccccc1)c1ccccc1-n1cc(O[C@@H]2O[C@H](CO)[C@H](O)[C@H](O)[C@H]2O)c2ccc(Cl)cc21 [Indicator I21a] , is +

###

tested on: Shigella boydii 135; assay: IO staining of colonies of beta-D-galactosidase positive/negative bacteria (Table IVb); type: cell-based; details: Shigella boydii strain 135, b-gal −; 24 h on Nutrient Agar, 150 mg/l indicator, 100 mg/l IPTG; also: key: −: absent; +/−: weak; +: strong; ++: very strong
reported metric: F: Fluorescence of colonies

O=C(c1ccccc1)c1ccccc1-n1cc(O[C@@H]2O[C@H](CO)[C@H](O)[C@H](O)[C@H]2O)c2ccc(Cl)cc21 [Indicator I21a] ... −
Cn1cccc1C(=O)c1ccccc1-n1cc(O[C@@H]2O[C@H](CO)[C@H](O)[C@H](O)[C@H]2O)c2ccc(Cl)cc21 [Indicator I31a] ... −
COc1ccc(C(=O)c2ccccc2-n2cc(O[C@@H]3O[C@H](CO)[C@H](O)[C@H](O)[C@H]3O)c3ccccc32)c(OC)c1 [Indicator I25a] ... −
COc1ccc(C(=O)c2ccccc2-n2cc(O[C@@H]3O[C@H](CO)[C@H](O)[C@H](O)[C@H]3O)c3ccc(Cl)cc32)c(OC)c1 [Indicator I27a] ... −
CC(=O)c1ccccc1-n1cc(O[C@@H]2O[C@H](CO)[C@H](O)[C@H](O)[C@H]2O)c2ccc(Cl)cc21 [Indicator I16a] ... −
O=C(c1ccccc1)c1ccccc1-n1cc(O[C@@H]2O[C@H](CO)[C@H](O)[C@H](O)[C@H]2O)c2c(Cl)c(Br)ccc21 [Indicator I22a] ... −

Field F: Fluorescence of colonies (entry COc1ccc(C(=O)c2ccccc2-n2cc(O[C@@H]3O[C@H](CO)[C@H](O)[C@H](O)[C@H]3O)c3c(Cl)c(Br)ccc32)c(OC)c1 [Indicator I28a] ) reads −

###

system: beta-galactosidase positive Eschericha coli (NM1); assay: IO staining of bacterial colonies on Nutrient Agar (color, fluorescence, localization, growth); assay type: cell-based, E. coli; details: 24 h on Nutrient Agar, 150 mg/l substrate and 100 mg/l IPTG
reported metric: C: Color of colonies (colour of stain)

A selection of reference data follows.
COc1ccc(C(C)=O)c(-n2cc(O[C@@H]3O[C@H](CO)[C@H](O)[C@H](O)[C@H]3O)c3ccc(Cl)cc32)c1 [Indicator I18a] ... light yellow
COc1ccc(C(=O)c2ccccc2-n2cc(O[C@@H]3O[C@H](CO)[C@H](O)[C@H](O)[C@H]3O)c3c(Cl)c(Br)ccc32)c(OC)c1 [Indicator I28a] ... orange
COC(=O)c1ccccc1-n1cc(O[C@@H]2O[C@H](CO)[C@H](O)[C@H](O)[C@H]2O)c2ccc(Cl)cc21 [Indicator I11a] ... yellow-green
O=C(O)c1ccc(C(=O)c2ccccc2-n2cc(O[C@@H]3O[C@H](CO)[C@H](O)[C@H](O)[C@H]3O)c3ccc(Cl)cc32)o1 [Indicator I29a] ... red
CC(=O)c1ccccc1-n1cc(O[C@@H]2O[C@H](CO)[C@H](O)[C@H](O)[C@H]2O)c2ccccc21 [Indicator I14a] ... light yellow

For COC(=O)c1ccccc1-n1cc(O[C@@H]2O[C@H](CO)[C@H](O)[C@H](O)[C@H]2O)c2c(Cl)c(Br)ccc21 [Indicator I12a] on beta-galactosidase positive Eschericha coli (NM1), measured C: Color of colonies (colour of stain) was yellow-green

The reported C: Color of colonies (colour of stain) value, beta-galactosidase positive Eschericha coli (NM1), for O=C(c1ccccc1)c1ccccc1-n1cc(O[C@@H]2O[C@H](CO)[C@H](O)[C@H](O)[C@H]2O)c2c(Cl)cccc21 [Indicator I20a] reads orange

Per the reported beta-galactosidase positive Eschericha coli (NM1) data, COc1ccc(C(=O)c2ccccc2-n2cc(O[C@@H]3O[C@H](CO)[C@H](O)[C@H](O)[C@H]3O)c3c(Cl)cccc32)c(OC)c1 [Indicator I26a] has C: Color of colonies (colour of stain) of yellow-orange

Value (C: Color of colonies (colour of stain), beta-galactosidase positive Eschericha coli (NM1)) for record O=C(c1ccccc1)c1ccccc1-n1cc(O[C@@H]2O[C@H](CO)[C@H](O)[C@H](O)[C@H]2O)c2ccccc21 [Indicator I19a] = yellow-orange

The compound COC(=O)c1ccccc1-n1cc(O[C@@H]2O[C@H](CO)[C@H](O)[C@H](O)[C@H]2O)c2ccccc21 [Indicator I10a] on beta-galactosidase positive Eschericha coli (NM1): C: Color of colonies (colour of stain) was yellow-green

Bench note, beta-galactosidase positive Eschericha coli (NM1): entry CC(=O)c1ccccc1-n1cc(O[C@@H]2O[C@H](CO)[C@H](O)[C@H](O)[C@H]2O)c2c(Cl)c(Br)ccc21 [Indicator I17a] , its C: Color of colonies (colour of stain) = yellow-orange

###

test system: Shigella sonnei 133; assay: IO staining of colonies of beta-D-galactosidase positive/negative bacteria (Table IVb); type: cell-based; conditions: Shigella sonnei strain 133, b-gal +/−; 24 h on Nutrient Agar, 150 mg/l indicator, 100 mg/l IPTG; also: key: −: absent; +/−: weak; +: strong; ++: very strong
reported metric: G: Growth of colonies

O=C(c1ccccc1)c1ccccc1-n1cc(O[C@@H]2O[C@H](CO)[C@H](O)[C@H](O)[C@H]2O)c2c(Cl)c(Br)ccc21 [Indicator I22a] ... +
CC(=O)c1ccccc1-n1cc(O[C@@H]2O[C@H](CO)[C@H](O)[C@H](O)[C@H]2O)c2ccc(Cl)cc21 [Indicator I16a] ... +
COc1ccc(C(=O)c2ccccc2-n2cc(O[C@@H]3O[C@H](CO)[C@H](O)[C@H](O)[C@H]3O)c3c(Cl)c(Br)ccc32)c(OC)c1 [Indicator I28a] ... +

###

test system: Aeromonas hydrophila 292; assay: IO staining of colonies of beta-D-galactosidase positive/negative bacteria (Table IVb); format: cell-based; conditions: Aeromonas hydrophila strain 292, b-gal +; 24 h on Nutrient Agar, 150 mg/l indicator, 100 mg/l IPTG
reported metric: C: Color of colonies

Cn1cccc1C(=O)c1ccccc1-n1cc(O[C@@H]2O[C@H](CO)[C@H](O)[C@H](O)[C@H]2O)c2ccc(Cl)cc21 [Indicator I31a] ... +
COc1ccc(C(=O)c2ccccc2-n2cc(O[C@@H]3O[C@H](CO)[C@H](O)[C@H](O)[C@H]3O)c3c(Cl)c(Br)ccc32)c(OC)c1 [Indicator I28a] ... +/−
COc1ccc(C(=O)c2ccccc2-n2cc(O[C@@H]3O[C@H](CO)[C@H](O)[C@H](O)[C@H]3O)c3ccc(Cl)cc32)c(OC)c1 [Indicator I27a] ... +

###

test system: Pseudomonas aeruginosa 168; test: IO staining of colonies of beta-D-galactosidase positive/negative bacteria (Table IVb); format: cell-based; settings: Pseudomonas aeruginosa strain 168, b-gal −; 24 h on Nutrient Agar, 150 mg/l indicator, 100 mg/l IPTG; also: key: −: absent; +/−: weak; +: strong; ++: very strong
reported metric: C: Color of colonies

Sample records with C: Color of colonies:
COc1ccc(C(=O)c2ccccc2-n2cc(O[C@@H]3O[C@H](CO)[C@H](O)[C@H](O)[C@H]3O)c3c(Cl)c(Br)ccc32)c(OC)c1 [Indicator I28a] ... −
COc1ccc(C(=O)c2ccccc2-n2cc(O[C@@H]3O[C@H](CO)[C@H](O)[C@H](O)[C@H]3O)c3ccccc32)c(OC)c1 [Indicator I25a] ... −
Cn1cccc1C(=O)c1ccccc1-n1cc(O[C@@H]2O[C@H](CO)[C@H](O)[C@H](O)[C@H]2O)c2ccc(Cl)cc21 [Indicator I31a] ... −
O=C(c1ccccc1)c1ccccc1-n1cc(O[C@@H]2O[C@H](CO)[C@H](O)[C@H](O)[C@H]2O)c2c(Cl)c(Br)ccc21 [Indicator I22a] ... −
COc1ccc(C(=O)c2ccccc2-n2cc(O[C@@H]3O[C@H](CO)[C@H](O)[C@H](O)[C@H]3O)c3ccc(Cl)cc32)c(OC)c1 [Indicator I27a] ... −

Documented C: Color of colonies of CC(=O)c1ccccc1-n1cc(O[C@@H]2O[C@H](CO)[C@H](O)[C@H](O)[C@H]2O)c2ccc(Cl)cc21 [Indicator I16a] : −

Record O=C(c1ccccc1)c1ccccc1-n1cc(O[C@@H]2O[C@H](CO)[C@H](O)[C@H](O)[C@H]2O)c2ccc(Cl)cc21 [Indicator I21a] . Reported C: Color of colonies: −

Source listed as patent US8940909B2.
